Give Ratio for every item shown.
Biological target: Monoamine transporters; serotonin & dopamine (Rattus norvegicus) (UniProt P31652+P23977)
Sequence (P23977 whole entry, looked up): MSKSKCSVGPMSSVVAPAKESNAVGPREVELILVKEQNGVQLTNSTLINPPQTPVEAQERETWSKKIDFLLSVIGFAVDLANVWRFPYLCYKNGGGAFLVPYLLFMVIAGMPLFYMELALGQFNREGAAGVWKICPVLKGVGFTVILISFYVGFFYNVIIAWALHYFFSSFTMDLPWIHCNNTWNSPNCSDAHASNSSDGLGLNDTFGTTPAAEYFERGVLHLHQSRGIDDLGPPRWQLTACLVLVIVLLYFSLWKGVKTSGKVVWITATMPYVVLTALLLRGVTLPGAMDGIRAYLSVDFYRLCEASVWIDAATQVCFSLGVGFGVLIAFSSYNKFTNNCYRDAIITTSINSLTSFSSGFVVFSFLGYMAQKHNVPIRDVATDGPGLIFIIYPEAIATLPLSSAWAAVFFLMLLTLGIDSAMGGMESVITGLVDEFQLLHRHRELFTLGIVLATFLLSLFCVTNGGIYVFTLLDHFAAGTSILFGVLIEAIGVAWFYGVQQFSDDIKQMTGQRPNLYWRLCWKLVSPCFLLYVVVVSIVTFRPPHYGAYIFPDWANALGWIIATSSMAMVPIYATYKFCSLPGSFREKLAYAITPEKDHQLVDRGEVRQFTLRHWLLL
Sequence (P31652 whole entry, looked up): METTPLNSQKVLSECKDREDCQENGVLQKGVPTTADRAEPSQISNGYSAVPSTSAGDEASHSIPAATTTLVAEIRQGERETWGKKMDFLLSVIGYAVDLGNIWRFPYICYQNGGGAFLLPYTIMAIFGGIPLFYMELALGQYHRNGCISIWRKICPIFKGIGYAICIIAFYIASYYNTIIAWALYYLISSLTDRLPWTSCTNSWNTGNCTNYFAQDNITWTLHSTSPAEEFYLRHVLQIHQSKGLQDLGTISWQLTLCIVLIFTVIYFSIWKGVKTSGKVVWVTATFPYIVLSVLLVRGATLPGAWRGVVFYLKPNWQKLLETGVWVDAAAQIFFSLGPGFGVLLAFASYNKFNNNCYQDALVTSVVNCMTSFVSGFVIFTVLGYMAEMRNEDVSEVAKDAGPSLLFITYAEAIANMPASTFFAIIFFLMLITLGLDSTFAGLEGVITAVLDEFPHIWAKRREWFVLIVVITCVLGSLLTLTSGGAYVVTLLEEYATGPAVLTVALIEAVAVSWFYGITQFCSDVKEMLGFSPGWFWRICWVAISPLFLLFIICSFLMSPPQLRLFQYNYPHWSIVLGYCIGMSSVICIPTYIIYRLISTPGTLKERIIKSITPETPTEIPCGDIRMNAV
Test: Ratio of binding affinity on SERT with respect to DA
Format: protein assay

Tell me Ratio reported for C(=C\c1cccs1)/CN1CCN(CCOC(c2ccccc2)c2ccccc2)CC1 184

Tell me Ratio reported for Fc1ccc(C(OCCN2CCN(Cc3cnc4ccccc4c3)CC2)c2ccc(F)cc2)cc1 30

Tell me Ratio reported for Fc1ccc(C(OCCN2CCN(CCCc3cccnc3)CC2)c2ccc(F)cc2)cc1 175

Tell me Ratio reported for c1ccc(C(OCCN2CCN(CCCc3cccnc3)CC2)c2ccccc2)cc1 31

Tell me Ratio reported for c1ccc(C(OCCN2CCN(Cc3nc4ccccc4[nH]3)CC2)c2ccccc2)cc1 41

Tell me Ratio reported for Fc1ccc(C(OCCN2CCN(CCCc3cccs3)CC2)c2ccc(F)cc2)cc1 32

Tell me Ratio reported for Fc1ccc(C(OCCN2CCN(Cc3ccc4ccccc4n3)CC2)c2ccc(F)cc2)cc1 < 1

Tell me Ratio reported for c1ccc(C(OCCN2CCN(CCCc3ccco3)CC2)c2ccccc2)cc1 234

Tell me Ratio reported for Fc1ccc(C(OCCN2CCN(C/C=C/c3cccnc3)CC2)c2ccc(F)cc2)cc1 25

Tell me Ratio reported for Fc1ccc(C(OCCN2CCN(Cc3nc4ccccc4[nH]3)CC2)c2ccc(F)cc2)cc1 17

Tell me Ratio reported for Fc1ccc(C(OCCN2CCN(Cc3cccc4ccccc34)CC2)c2ccc(F)cc2)cc1 8

###

Target: Sodium-dependent serotonin transporter (Rattus norvegicus)
Sequence (P31652 whole entry): as the sequence (P31652 whole entry, looked up) above
Test: Binding affinity was determined at the Serotonin transporter labeled with radioligand [125 I] RTI-55
measurement.kind: pIC50
To interpret pIC50, take it as minus log10 of a concentration measured in moles per litre.

Tell me pIC50 reported for Fc1ccc(C(OCCN2CCN(CCCc3cccnc3)CC2)c2ccc(F)cc2)cc1 5.55

Tell me pIC50 reported for Fc1ccc(C(OCCN2CCN(C/C=C/c3cccs3)CC2)c2ccc(F)cc2)cc1 7.06

Tell me pIC50 reported for Fc1ccc(C(OCCN2CCN(C/C=C/c3cccnc3)CC2)c2ccc(F)cc2)cc1 6.48

Tell me pIC50 reported for Fc1ccc(C(OCCN2CCN(CCCc3cccs3)CC2)c2ccc(F)cc2)cc1 6.98

Tell me pIC50 reported for Fc1ccc(C(OCCN2CCN(CCCc3ccco3)CC2)c2ccc(F)cc2)cc1 6.69

Tell me pIC50 reported for Fc1ccc(C(OCCN2CCN(C/C=C/c3ccco3)CC2)c2ccc(F)cc2)cc1 6.96

###

Give Ratio for every item shown.
Biological target: Monoamine transporters; serotonin & dopamine (Rattus norvegicus) (UniProt P31652+P23977)
Test: Ratio of binding affinity on SERT with respect to DA
Assay type: protein assay
Note: the reply should be a number with no unit written.

Report value: Ratio, system: Monoamine transporters; serotonin & dopamine (Rattus norvegicus) (UniProt P31652+P23977), compound: Fc1ccc(C(OCCN2CCN(Cc3cc4ccccc4s3)CC2)c2ccc(F)cc2)cc1 121

Report value: Ratio, system: Monoamine transporters; serotonin & dopamine (Rattus norvegicus) (UniProt P31652+P23977), compound: c1ccc(C(OCCN2CCN(Cc3cc4ccccc4s3)CC2)c2ccccc2)cc1 131

Report value: Ratio, system: Monoamine transporters; serotonin & dopamine (Rattus norvegicus) (UniProt P31652+P23977), compound: c1ccc(C(OCCN2CCN(Cc3cnc4ccccc4c3)CC2)c2ccccc2)cc1 16

Report value: Ratio, system: Monoamine transporters; serotonin & dopamine (Rattus norvegicus) (UniProt P31652+P23977), compound: Fc1ccc(C(OCCN2CCN(Cc3ccc4ccccc4c3)CC2)c2ccc(F)cc2)cc1 39

Report value: Ratio, system: Monoamine transporters; serotonin & dopamine (Rattus norvegicus) (UniProt P31652+P23977), compound: c1ccc(C(OCCN2CCN(Cc3cccc4ccccc34)CC2)c2ccccc2)cc1 3

Reference source for all entries: ChEMBL document CHEMBL1129953
